# Experiment Summary: Oral bioavailability in mouse at 2 mg/kg
# Format: ADME, organism-based
# Measurement Context: in vivo
Test Readout: bioavailability

In [3]: df
Out[3]:
                                   compound     test_readout  measured_result
0  Cc1cc(Oc2ncc(C(F)(F)F)cc2Cl)ccc1CC1SC(=O)NC1=O (stereo unspecified)  bioavailability             100%

* * *

# Target Or Test System: Free fatty acid receptor 1 (Homo sapiens, UniProt O14842)
# Sequence (O14842 whole entry): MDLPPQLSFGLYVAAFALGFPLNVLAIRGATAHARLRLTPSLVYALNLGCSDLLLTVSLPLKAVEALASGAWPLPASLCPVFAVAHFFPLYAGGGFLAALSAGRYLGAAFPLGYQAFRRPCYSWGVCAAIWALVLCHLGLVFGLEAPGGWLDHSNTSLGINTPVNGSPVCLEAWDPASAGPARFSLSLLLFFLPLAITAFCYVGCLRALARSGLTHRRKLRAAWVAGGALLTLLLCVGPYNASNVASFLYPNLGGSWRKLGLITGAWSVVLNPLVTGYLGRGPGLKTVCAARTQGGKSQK
# Experiment Summary: Agonist activity at human GPR40 by FLIPR assay in presence of 1% BSA
# Assay type: functional
# Measurement Context: read-out: EC50
pEC50: −log10 of the molar value.
Test Readout: pEC50

>>> df
                                    compound  test_readout  measured_result
 0  COc1cc(Oc2ccc(Cl)cc2Cl)ccc1CC1SC(=O)NC1=O (stereo not drawn)         pEC50             5.85
 1  O=C1NC(=O)C(Cc2ccc(Oc3ccc(Cl)cc3Cl)cc2C(F)(F)F)S1 (stereo not drawn)         pEC50             7.06
 2  O=C1NC(=O)C(Cc2ccc(Oc3cccc(Cl)c3)cc2)S1 (stereo not drawn)         pEC50             6.50
 3  O=C1NC(=O)C(Cc2ccc(Oc3ccc(C(F)(F)F)cn3)cc2)S1 (stereo not drawn)         pEC50             6.25
 4  O=C1NC(=O)C(Cc2ccc(Oc3cccc4ccccc34)cc2)S1 (stereo not drawn)         pEC50             6.87
 5  O=C1NC(=O)C(Cc2ccc(OCc3ccccc3)cc2)S1 (stereo not drawn)         pEC50             5.21
 6  O=C1NC(=O)C(Cc2ccc(Oc3ccc(C(F)(F)F)cc3Cl)cc2)S1 (stereo not drawn)         pEC50             7.11
 7  O=C1NC(=O)C(Cc2ccc(Oc3ncccc3C(F)(F)F)cc2)S1 (stereo not drawn)         pEC50             5.64
 8  O=C1NC(=O)C(Cc2ccc(Oc3cccc(C(F)(F)F)n3)cc2)S1 (stereo not drawn)         pEC50             5.79
 9  Cc1cc(Oc2ncc(C(F)(F)F)cc2Cl)ccc1CC1SC(=O)NC1=O (stereo not drawn)         pEC50             8.00
10  Cc1cccnc1Oc1ccc(CC2SC(=O)NC2=O)cc1 (stereo not drawn)         pEC50             5.96
11  O=C1NC(=O)C(Cc2ccc(Oc3ncc(Cl)cc3Cl)cc2)S1 (stereo not drawn)         pEC50             7.05
12  Cc1ccccc1Oc1ccc(CC2SC(=O)NC2=O)cc1 (stereo not drawn)         pEC50             6.91
13  COc1cc(Oc2ncc(C(F)(F)F)cc2Cl)ccc1CC1SC(=O)NC1=O (stereo not drawn)         pEC50             4.86
14  Cc1cc(C)cc(Oc2ccc(CC3SC(=O)NC3=O)cc2)c1 (stereo not drawn)         pEC50             7.02
15  O=C1NC(=O)C(Cc2ccc(Cc3ccccc3)cc2)S1 (stereo not drawn)         pEC50             5.03
16  Cc1cc(C(F)(F)F)cc(Oc2ccc(CC3SC(=O)NC3=O)cc2)n1 (stereo not drawn)         pEC50             6.66
17  Cc1ccnc(Oc2ccc(CC3SC(=O)NC3=O)cc2)c1 (stereo not drawn)         pEC50             5.37
18  Cc1cccc(Oc2ccc(CC3SC(=O)NC3=O)cc2)c1C (stereo not drawn)         pEC50             6.48
19  O=C1NC(=O)C(Cc2ccc(Oc3ncc(C(F)(F)F)cc3Cl)cc2Cl)S1 (stereo not drawn)         pEC50             7.59
20  Cc1ccc(Oc2ccc(CC3SC(=O)NC3=O)cc2)c(C)c1 (stereo not drawn)         pEC50             6.92
21  O=C1NC(=O)C(Cc2ccc(Oc3ncc(C(F)(F)F)cc3Cl)c3ccccc23)S1 (stereo not drawn)         pEC50             4.63
22  O=C1NC(=O)C(Cc2ccc(Oc3cc4ccccc4cn3)cc2)S1 (stereo not drawn)         pEC50             6.84
23  O=C1NC(=O)C(Cc2ccc(/C=C/c3ccccc3)cc2)S1 (stereo not drawn)         pEC50             5.68
24  O=C1NC(=O)C(Cc2ccc(Oc3ccc(F)cc3)cc2)S1 (stereo not drawn)         pEC50             6.32
25  Cc1cccc(Oc2ccc(CC3SC(=O)NC3=O)cc2)c1 (stereo not drawn)         pEC50             6.69
26  Cc1cc(Oc2ccc(CC3SC(=O)NC3=O)cc2)cc(C)c1C#N (stereo not drawn)         pEC50             6.92
27  O=C1NC(=O)C(Cc2ccc(Oc3cc(C(F)(F)F)ccn3)cc2)S1 (stereo not drawn)         pEC50             6.63
